Molecular target: Gal(b1-4)GlcNAc(b1-3)[Gal(b1-4)GlcNAc(b1-6)]Gal(b1-4)GlcNAc
Assay: glycan array binding signal (z-score within array); higher = stronger binding
Details: glycan notation: IUPAC condensed, linker removed
Many of the other results were omitted from the sample, so the strongest signals are more common in it than they were.
# Lookup of reported glycan array binding signal (z-score) keyed by entry

PNGase F (Flavobacterium meningosepticum) (protein) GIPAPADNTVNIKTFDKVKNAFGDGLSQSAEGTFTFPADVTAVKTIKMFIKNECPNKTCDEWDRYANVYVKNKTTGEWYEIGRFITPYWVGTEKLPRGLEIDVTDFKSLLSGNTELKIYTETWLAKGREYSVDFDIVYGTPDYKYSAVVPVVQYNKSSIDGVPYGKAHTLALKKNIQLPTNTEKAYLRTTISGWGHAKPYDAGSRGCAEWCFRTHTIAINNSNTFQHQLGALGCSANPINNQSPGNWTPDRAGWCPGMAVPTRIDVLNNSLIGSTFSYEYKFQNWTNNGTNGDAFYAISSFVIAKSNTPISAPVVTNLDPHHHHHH = -0.219
CBM32-5 (Clostridium perfringens) (protein) MGSSHHHHHHSSGLVPRGSHMASALPQGNMKATATSEHPDVGNEGLAKFAIDGKENTIWHTKYNPVEELPQSITLELGGSYEINKFTYLPRSGAKNGNITKYELHVSEDGNNFRKISEGNWDDSGSLKTLKFNSTKATHVKLVALEGVGGFASAAELNVFA = 3.1
GH95CBM (Clostridium perfringens) (protein) EKVAVETSVYLSELEWKSASTGYGEIQKDASCDGNTITLKGENGEKVSYDKGIGTHAHSEIVYSLEGLDYYDYFETFVGVDQEMAGTVASISFEVYLDNEKVFDSGLMTGDTTQKHVKVPIAGKNTLKLVVKDGGDSIGSDHGSFGDAKLT = -0.311

Turning now to a further record.
Quick one: glycan array binding signal (z-score) of PEB3 (Campylobacter jejuni), Q0PBL7 (protein) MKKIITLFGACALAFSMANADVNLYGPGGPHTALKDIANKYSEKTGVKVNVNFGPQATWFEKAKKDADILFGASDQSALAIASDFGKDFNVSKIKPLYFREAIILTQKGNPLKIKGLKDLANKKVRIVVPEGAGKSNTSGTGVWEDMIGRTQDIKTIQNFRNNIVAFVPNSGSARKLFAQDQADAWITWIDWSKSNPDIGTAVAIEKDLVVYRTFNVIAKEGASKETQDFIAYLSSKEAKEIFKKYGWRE ?
-0.199
